# testTarget: human Farnesoid X receptor ligand-binding domain/Gal4 DNA binding domain chimera (Homo sapiens (Human))
# Sequence (Q96RI1 262-486, change not shown): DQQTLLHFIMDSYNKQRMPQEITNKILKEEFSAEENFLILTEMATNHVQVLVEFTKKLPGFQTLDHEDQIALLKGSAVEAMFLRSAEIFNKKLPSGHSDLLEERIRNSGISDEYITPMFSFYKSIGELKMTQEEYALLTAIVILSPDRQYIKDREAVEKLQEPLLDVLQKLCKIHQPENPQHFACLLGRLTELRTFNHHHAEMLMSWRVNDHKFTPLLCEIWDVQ
# Sequence (P04386 1-147 partner): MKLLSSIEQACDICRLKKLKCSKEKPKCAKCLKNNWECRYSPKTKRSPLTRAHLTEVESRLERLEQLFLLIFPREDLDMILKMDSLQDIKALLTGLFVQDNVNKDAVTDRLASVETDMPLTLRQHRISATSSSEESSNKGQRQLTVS
# experimentalProtocol: Cell-based assay of FXR activation (FXR-UAS-bla HEK 293T beta-lactamase reporter)
# conditionSet: cellular FXR beta-lactamase reporter assay, FXR-UAS-bla HEK 293T cells, 16 h; pEC50 = -log EC50
Quick reference: log10(EC50) of the listed items.
Please interpret these as log10 of EC50 where EC50 is in nM.

# example entries with known answers
1) O=C(NS(=O)(=O)C1CC1)c1ccc(N2C[C@@H]3C[C@H]2C[C@H]3OCc2c(-c3c(Cl)cccc3Cl)noc2C2(F)CC2)cc1 ... -0.10
2) O=c1[nH]c2cc(N3C[C@@H]4C[C@H]3C[C@H]4OCc3c(-c4c(Cl)cccc4Cl)noc3C3CC3)ccc2o1 ... 1.30
3) O=C(O)c1c(F)cc(N2C[C@@H]3C[C@H]2C[C@H]3OCc2c(-c3c(Cl)cccc3Cl)noc2C2CC2)cc1F ... 0.50
4) O=C(NS(=O)(=O)C1CCOCC1)c1ccc(N2C[C@@H]3C[C@H]2C[C@H]3OCc2c(-c3c(Cl)cccc3Cl)noc2C2CC2)cc1 ... -0.80
5) O=C(O)c1ccc(N2C[C@@H]3C[C@H]2C[C@H]3OC(=O)c2c(-c3c(Cl)cccc3Cl)noc2C2(F)CC2)c(F)c1 ... 1.00

[Q] Item `O=C(O)CNC(=O)c1ccc(N2C[C@@H]3C[C@H]2C[C@H]3OCc2c(-c3c(Cl)cccc3Cl)noc2C2CC2)cc1F` has what recorded log10(EC50)?
[A] 0.90
